Please provide measured cAMP, x-fold of forskolin (mean), NPR-11 for the entries that follow.
Target: NPR-11 (Caenorhabditis elegans, UniProt Q18179)
Construct: expressed in transfected cells; host or cells: HEK293, transient
Sequence (Q18179 whole entry): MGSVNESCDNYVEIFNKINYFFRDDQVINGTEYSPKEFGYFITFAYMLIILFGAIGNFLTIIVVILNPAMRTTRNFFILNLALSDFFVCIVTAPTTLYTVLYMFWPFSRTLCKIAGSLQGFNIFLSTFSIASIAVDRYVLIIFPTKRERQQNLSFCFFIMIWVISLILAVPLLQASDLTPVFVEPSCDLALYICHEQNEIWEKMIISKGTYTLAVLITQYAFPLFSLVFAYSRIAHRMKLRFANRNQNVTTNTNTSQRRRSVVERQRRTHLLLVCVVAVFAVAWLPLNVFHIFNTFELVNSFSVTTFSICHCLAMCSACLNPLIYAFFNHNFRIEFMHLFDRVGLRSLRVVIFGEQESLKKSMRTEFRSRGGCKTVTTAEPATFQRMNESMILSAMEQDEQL
Assay: cAMP reporter gene assay, Gi/o (inhibition of forskolin-induced cAMP), NPR-11
Type: cell-based, C. elegans
Conditions: 0.1 µM peptide; 1 µM forskolin set to 1.00; transiently transfected HEK293 cells; mean of at least three independent experiments

substance	readout.name	test.value
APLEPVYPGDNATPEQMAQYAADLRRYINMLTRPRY-NH2 [PP, human pancreatic polypeptide, reference compound]	cAMP, x-fold of forskolin (mean), NPR-11	0.37 x-fold of forskolin
AGSDPNFLRF-NH2 [FLP-1-2, C. elegans FMRFamide-like peptide, C-terminally amidated, synthesized by SPPS]	cAMP, x-fold of forskolin (mean), NPR-11	0.92 x-fold of forskolin

QUERY: # lookup: cAMP, x-fold of forskolin (mean), NPR-11 of EASAFGDIIGELKGKGLGGRMRF-NH2 [FLP-27, NPY-like C. elegans FLP with C-terminal RxRF/Ya signature]
RESULT: 0.71 x-fold of forskolin

====

Target: NPR-1 (Caenorhabditis elegans)
Sequence (Q18534 whole entry): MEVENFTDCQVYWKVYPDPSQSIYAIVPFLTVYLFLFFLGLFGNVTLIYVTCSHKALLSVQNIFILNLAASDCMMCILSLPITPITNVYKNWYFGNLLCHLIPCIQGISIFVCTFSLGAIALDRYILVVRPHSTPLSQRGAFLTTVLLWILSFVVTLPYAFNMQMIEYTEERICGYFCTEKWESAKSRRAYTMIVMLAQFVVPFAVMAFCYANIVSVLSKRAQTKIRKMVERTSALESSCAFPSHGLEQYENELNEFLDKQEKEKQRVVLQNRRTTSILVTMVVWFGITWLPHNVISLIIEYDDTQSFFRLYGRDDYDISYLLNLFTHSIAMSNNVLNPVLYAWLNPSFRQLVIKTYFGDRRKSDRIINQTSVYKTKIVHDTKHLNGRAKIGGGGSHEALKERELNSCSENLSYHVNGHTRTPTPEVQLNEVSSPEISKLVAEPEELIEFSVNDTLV
Test: cAMP reporter gene assay, Gi/o (inhibition of forskolin-induced cAMP), NPR-1
Type: cell-based, C. elegans
Parameters: host or cells: HEK293
Conditions: 10 µM peptide; inhibition of cAMP production induced by 1 µM forskolin (set to 1.00), lower = higher Gi/o activity; transiently transfected HEK293 cells; mean of at least three independent experiments
Record form. Attribute: cAMP, x-fold of forskolin (mean), NPR-1. Fill in for each entry.

Go through the items and report each one's cAMP, x-fold of forskolin (mean), NPR-1.
1. APLEGFEDMSGFLRTIDGIQKPRF-NH2 [FLP-33, NPY-like C. elegans FLP with C-terminal RxRF/Ya signature]
2. APKPKFIRF-NH2 [FLP-5-1, C. elegans FMRFamide-like peptide, C-terminally amidated, synthesized by SPPS]
3. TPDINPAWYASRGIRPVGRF-NH2 [PrRP20, human prolactin-releasing peptide, 20 residues, reference compound]

RESULT:
["0.82 x-fold of forskolin", "0.50 x-fold of forskolin", "1.45 x-fold of forskolin"]

Report cAMP, x-fold of forskolin (mean), NPR-1 for each item below.
1. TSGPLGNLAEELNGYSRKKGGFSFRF-NH2 [QRFP26, human pyroglutamylated RFamide peptide, 26 residues, reference compound]
2. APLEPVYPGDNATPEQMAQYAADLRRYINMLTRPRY-NH2 [PP, human pancreatic polypeptide, reference compound]
3. NPENDTPFGTMRF-NH2 [FLP-3-4, C. elegans FMRFamide-like peptide, C-terminally amidated, synthesized by SPPS]

RESULT:
["0.84 x-fold of forskolin", "1.49 x-fold of forskolin", "0.89 x-fold of forskolin"]

Each of the following entries comes with a recorded value; kindly state cAMP, x-fold of forskolin (mean), NPR-1 for each.
1. AGSDPNFLRF-NH2 [FLP-1-2, C. elegans FMRFamide-like peptide, C-terminally amidated, synthesized by SPPS]
2. ASPSFIRF-NH2 [FLP-4-2, C. elegans FMRFamide-like peptide, C-terminally amidated, synthesized by SPPS]
3. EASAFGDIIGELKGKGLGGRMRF-NH2 [FLP-27, NPY-like C. elegans FLP with C-terminal RxRF/Ya signature]

RESULT:
["0.89 x-fold of forskolin", "0.76 x-fold of forskolin", "0.71 x-fold of forskolin"]
